Source of measurements: patent US6596863B2

- assay.target: human MMP-9 (gelatinase B) (Homo sapiens)
- Construct: endogenous in cells; host or cells: HT1080 human fibrosarcoma cells (ATCC CCL-121), PMA-stimulated; enzyme purified from the culture supernatant
- Sequence (P14780 107-707 limits assumed): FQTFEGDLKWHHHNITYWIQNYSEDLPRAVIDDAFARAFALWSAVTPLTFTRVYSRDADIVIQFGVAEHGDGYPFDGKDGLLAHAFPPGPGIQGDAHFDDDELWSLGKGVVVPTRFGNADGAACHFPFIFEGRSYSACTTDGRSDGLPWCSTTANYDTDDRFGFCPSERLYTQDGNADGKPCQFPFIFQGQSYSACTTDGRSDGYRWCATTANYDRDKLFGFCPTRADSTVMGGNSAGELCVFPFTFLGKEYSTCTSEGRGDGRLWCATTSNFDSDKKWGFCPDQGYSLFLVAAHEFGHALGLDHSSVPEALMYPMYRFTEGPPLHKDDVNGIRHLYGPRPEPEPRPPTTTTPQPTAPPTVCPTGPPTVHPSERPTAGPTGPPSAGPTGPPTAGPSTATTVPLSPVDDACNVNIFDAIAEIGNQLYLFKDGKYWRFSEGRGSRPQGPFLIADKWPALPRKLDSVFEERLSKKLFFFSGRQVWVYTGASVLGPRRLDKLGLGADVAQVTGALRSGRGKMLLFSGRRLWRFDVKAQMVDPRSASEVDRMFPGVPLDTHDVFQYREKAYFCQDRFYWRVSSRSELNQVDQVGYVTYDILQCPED
- test.details: Inhibition activity against human MMP-9 (gelatinase B), fluorescent peptide substrate
- Type: biochemical
- reported.conditions: compounds of the formula (I); average of 1st and 2nd (or single measurement); read-out: MMP-9 inhibition activities IC50, Average
measured.attribute: IC50 (µM)

Worked examples follow.
CNC(=C[N+](=O)[O-])NNc1cccc(Cl)c1 : 43.1
CNC(=C[N+](=O)[O-])NN=CC=Cc1ccccc1 : 9.9
COc1ccc(NC(=C[N+](=O)[O-])NN)cn1 : 29.2

(P) CNC(=C[N+](=O)[O-])NN=Cc1ccc2c(c1)OCCO2
(Q) CNC(=C[N+](=O)[O-])NNc1cc(C(F)(F)F)cc(OCc2ccccc2Cl)n1
(R) CNC(=C[N+](=O)[O-])NNc1cc(C(F)(F)F)ncn1
(S) NNC(=C[N+](=O)[O-])NC1CCCC1
(T) CNC(=C[N+](=O)[O-])NNS(=O)(=O)c1cccc2ccccc12
Sort the 5 compounds by IC50; largest first, smallest last. Please respond with the labels ordered as the question requires.
R, S, P, T, Q
(R: 40.5 µM, S: 27.9 µM, P: 19 µM, T: 13.1 µM, Q: 9 µM)
